tested on: Mus musculus; assay: Cmax in CD1 mouse assessed as (2R,3R,4R,5R,6R)-5-acetamido-4-amino-2,3-difluoro-6-((1R,2R)-1,2,3-trihydroxypropyl)tetrahydro-2H-pyran-2-carboxylic acid at 30 mg/kg, po; assay type: ADME, organism-based; parameters: dose 30 mg/kg, route oral; conditions: in vivo
Label criterion met for high-side Cmax (at or above 3000 nM) and criterion not met for low-side Cmax (below it).

Query :: Does Cmax meet or surpass 3000 nM for COC(=O)[C@]1(F)O[C@@H]([C@H](O)[C@H](O)COC(=O)OCC(C)C)[C@H](NC(C)=O)[C@@H](N)[C@H]1F ?
Result :: criterion not met

Query :: Entry CC(=O)N[C@@H]1[C@@H](N)[C@@H](F)[C@](F)(C(=O)OC(C)C)O[C@H]1[C@H](O)[C@H](O)CO : is its Cmax no less than 3000 nM?
Result :: criterion not met

Query :: Assess whether reported Cmax for CCCCCCCCOC(=O)OC[C@@H](O)[C@@H](O)[C@@H]1O[C@@](F)(C(=O)OC)[C@H](F)[C@H](N)[C@H]1NC(C)=O sits at 3000 nM or higher.
Result :: criterion met

Query :: hey, is Cmax for this one >= 3000 nM? CCCCCOC(=O)[C@]1(F)O[C@@H]([C@H](O)[C@H](O)CO)[C@H](NC(C)=O)[C@@H](N)[C@H]1F
Result :: criterion met

Query :: API: above_or_equal(metric=Cmax, cutoff=3000 nM) for item COC(=O)[C@]1(F)O[C@@H]([C@H](O)[C@H](O)CO)[C@H](NC(C)=O)[C@@H](N)[C@H]1F
Result :: criterion not met

Query :: Kindly determine if Cmax recorded for CC(=O)N[C@@H]1[C@@H](N)[C@@H](F)[C@](F)(C(=O)OCC2CCCCC2)O[C@H]1[C@H](O)[C@H](O)CO is above or exactly 3000 nM.
Result :: criterion not met

###

experiment: Total plasma concentration in CD1 mouse at 50 mg/kg, po measured at 20 mins by reversed-phase UPLC/MS analysis; format: ADME, organism-based; set-up: dose 50 mg/kg, route oral
measurement type: concentration at 20 min (µM)
State just the number; it will be interpreted in µM.

Query :: Return the recorded concentration at 20 min value; entry: CC(=O)N[C@@H]1[C@@H](N)[C@@H](F)[C@](F)(C(=O)O)O[C@H]1[C@H](O)[C@H](O)CO
Result :: 4.5

###

assay: Stability in simulated gastric fluid at 10 uM at pH 1 measured at 15 mins; assay type: ADME; settings: read-out: Stability
Would you mind telling me the reported remaining at 0.25 h, 10 µM of each entry?
Give the value, in units of %, as a plain number.

Query :: Complete the entry with remaining at 0.25 h, 10 µM for COC(=O)[C@]1(F)O[C@@H]([C@H](O)[C@H](O)CO)[C@H](NC(C)=O)[C@@H](N)[C@H]1F
Result :: 100

Query :: Return reported remaining at 0.25 h, 10 µM. Input compound: CCCCCCCCOC(=O)OC[C@@H](O)[C@@H](O)[C@@H]1O[C@@](F)(C(=O)OC)[C@H](F)[C@H](N)[C@H]1NC(C)=O
Result :: 99

Query :: Look up and state reported remaining at 0.25 h, 10 µM for CC(=O)N[C@@H]1[C@@H](N)[C@@H](F)[C@](F)(C(=O)OCC(=O)N(C)C)O[C@H]1[C@H](O)[C@H](O)CO
Result :: 53

Query :: Please look at this compound and report its remaining at 0.25 h, 10 µM: CC(=O)N[C@@H]1[C@@H](N)[C@@H](F)[C@](F)(C(=O)OC(C)C)O[C@H]1[C@H](O)[C@H](O)CO
Result :: 100

###

I'd be grateful if you could share measured remaining at 1 h, 10 µM for these entries.
assay: Stability in simulated gastric fluid at 10 uM at pH 4 measured at 60 mins; assay type: ADME; details: read-out: Stability
Express it in %; write the number only.

Query :: Give the reported remaining at 1 h, 10 µM for this compound. CC(=O)N[C@@H]1[C@@H](N)[C@@H](F)[C@](F)(C(=O)OC(C)C)O[C@H]1[C@H](O)[C@H](O)CO
Result :: 99

Query :: Tell me its remaining at 1 h, 10 µM given CC(=O)N[C@@H]1[C@@H](N)[C@@H](F)[C@](F)(C(=O)OCC(=O)N(C)C)O[C@H]1[C@H](O)[C@H](O)CO as the entry.
Result :: 74

Query :: Hello, please tell me recorded remaining at 1 h, 10 µM for this one: COC(=O)[C@]1(F)O[C@@H]([C@H](O)[C@H](O)COC(=O)OCC(C)C)[C@H](NC(C)=O)[C@@H](N)[C@H]1F
Result :: 86

Query :: Indicate its recorded remaining at 1 h, 10 µM; the compound in question is CC(=O)N[C@@H]1[C@@H](N)[C@@H](F)[C@](F)(C(=O)OCC2CCCCC2)O[C@H]1[C@H](O)[C@H](O)CO
Result :: 100

Query :: Identify the reported remaining at 1 h, 10 µM for the following entry. COC(=O)[C@]1(F)O[C@@H]([C@H](O)[C@H](O)CO)[C@H](NC(C)=O)[C@@H](N)[C@H]1F
Result :: 99

Query :: Determine from records and report remaining at 1 h, 10 µM for CCCCCOC(=O)[C@]1(F)O[C@@H]([C@H](O)[C@H](O)CO)[C@H](NC(C)=O)[C@@H](N)[C@H]1F
Result :: 100

Query :: Give the reported remaining at 1 h, 10 µM for this compound. CCCCCCCCOC(=O)OC[C@@H](O)[C@@H](O)[C@@H]1O[C@@](F)(C(=O)OC)[C@H](F)[C@H](N)[C@H]1NC(C)=O
Result :: 88

###

experiment: Total plasma concentration in CD1 mouse at 30 mg/kg, po measured at 20 mins by reversed-phase UPLC/MS analysis; format: ADME, organism-based; parameters: dose 30 mg/kg, route oral
measurement type: concentration at 20 min

Query :: State its concentration at 20 min for this compound: CCOC(=O)C1=C[C@@H](OC(CC)CC)[C@H](NC(C)=O)[C@@H](N)C1 [OSELTAMIVIR]
Result :: 8410 nM

Query :: Could you please provide reported concentration at 20 min for CC(=O)N[C@@H]1[C@@H](N)[C@@H](F)[C@](F)(C(=O)O)O[C@H]1[C@H](O)[C@H](O)CO ? Thanks!
Result :: 2700 nM

Query :: For CC(=O)N[C@H]1[C@H]([C@H](O)[C@H](O)CO)OC(C(=O)O)=C[C@@H]1N=C(N)N [ZANAMIVIR] , write its concentration at 20 min.
Result :: 1310 nM

###

Provide the reported concentration of each item.
test system: Mus musculus; assay: Total plasma concentration in CD1 mouse assessed as (2R,3R,4R,5R,6R)-5-acetamido-4-amino-2,3-difluoro-6-((1R,2R)-1,2,3-trihydroxypropyl)tetrahydro-2H-pyran-2-carboxylic acid at 30 mg/kg, po measured at 60 mins by reversed-phase UPLC/MS analysis; type: ADME, organism-based; parameters: dose 30 mg/kg, route oral; conditions: in vivo, 1 h
State just the number; it will be interpreted in nM.

Query :: Report concentration from Mus musculus testing of CC(=O)N[C@@H]1[C@@H](N)[C@@H](F)[C@](F)(C(=O)NCCO)O[C@H]1[C@H](O)[C@H](O)CO
Result :: 1390

Query :: Quote Mus musculus concentration for entry COC(=O)CNC(=O)[C@]1(F)O[C@@H]([C@H](O)[C@H](O)CO)[C@H](NC(C)=O)[C@@H](N)[C@H]1F .
Result :: 4390

Query :: Find concentration for COC(=O)[C@]1(F)O[C@@H]([C@H](O)[C@H](O)COC(=O)OC(C)C)[C@H](NC(C)=O)[C@@H](N)[C@H]1F on Mus musculus and write it down.
Result :: 2690

Query :: Would you please give the reported concentration of CC(=O)N[C@@H]1[C@@H](N)[C@@H](F)[C@](F)(C(=O)OCCCCC(F)(F)F)O[C@H]1[C@H](O)[C@H](O)CO with Mus musculus?
Result :: 4020

Query :: Param request: concentration | system Mus musculus | item COC(=O)[C@]1(F)O[C@@H]([C@H](O)[C@H]2COC(=O)O2)[C@H](NC(C)=O)[C@@H](N)[C@H]1F
Result :: 730

Query :: Provide concentration, system Mus musculus, entry COC(=O)[C@]1(F)O[C@@H]([C@H](O)[C@H]2COC(C(C)C)(C(C)C)O2)[C@H](NC(C)=O)[C@@H](N)[C@H]1F
Result :: 730

Query :: GET concentration | system: Mus musculus | item: CC(=O)N[C@@H]1[C@@H](N)[C@@H](F)[C@](F)(C(=O)OCCCCCOC(=O)c2ccc3ccccc3c2O)O[C@H]1[C@H](O)[C@H](O)CO
Result :: 800

Origin of measurements: ChEMBL document CHEMBL3425436
